Cited source for all entries: patent US10363248B2

# run-description: Plasma concentration in female CD-1 nude mice, formulation groups A-C
# Type: in vivo
# condition-description: female, CD-1 nude, mouse, oral, time point 6 h, individual mouse, read-out: Calc. Conc.
value-type: concentration at 6 h (nM)
Reply numerically in nM, unit not repeated.

Entry CS(=O)(=O)O.Cc1nc(-c2nc(-c3ccc(OC(F)(F)F)cc3)no2)nn1Cc1cccc(N2CCC(S(C)(=O)=O)CC2)c1 [MESYLATE SALT, methanesulfonate] — recorded concentration at 6 h = 2950

---

# run-description: Plasma concentration-time data and PK parameters after a PO dose of 10 mg/kg in female CD1 nude mice (Groups 1-5)
# condition-description: female, CD-1 nude, mouse, in vivo, po, 10 mg/kg
value-type: Cmax (nM)
Reply numerically in nM, unit not repeated.

Entry Cc1nc(-c2nc(-c3ccc(OC(F)(F)F)cc3)no2)nn1Cc1cccc(N2CCC(S(C)(=O)=O)CC2)c1 — recorded Cmax = 959
